# Test: Equilibrium solubility measurement (shake-flask) in blank FaSSIF, FaSSIF, FeSSIF
# Type: physicochemical
# Conditions Used: FeSSIF/FaSSIF; corresponds to Fafed/Fafasted predicted by Eq. (18)
Could you please report measured Ratio (fed/fasted) Sdissolv for the items listed next?
The answer should be written as a number, with no unit following it.

Data request: Param item = "COc1ccccc1Oc1c(NS(=O)(=O)c2ccc(C(C)(C)C)cc2)nc(-c2ncccn2)nc1OCCO" ; retrieve measured Ratio (fed/fasted) Sdissolv.
Data returned: 2.1

Data request: Param item = "Cc1ccc(-c2cc(C(F)(F)F)nn2-c2ccc(S(N)(=O)=O)cc2)cc1" ; retrieve measured Ratio (fed/fasted) Sdissolv.
Data returned: 2.2

Data request: Param item = "CCc1c(Cl)c(O)c(Cl)c(O)c1C(=O)O[C@H]1[C@H](O)[C@H](OC)[C@H](OC/C2=C\C=C\C[C@H](O)/C(C)=C/[C@H](CC)[C@@H](O[C@@H]3OC(C)(C)[C@@H](OC(=O)C(C)C)[C@H](O)[C@@H]3O)/C(C)=C/C(C)=C/C[C@@H]([C@@H](C)O)OC2=O)O[C@@H]1C" ; retrieve measured Ratio (fed/fasted) Sdissolv.
Data returned: 2.3

Data request: Param item = "O=C(Nc1cccc2c(=O)cc(-c3nnn[nH]3)oc12)c1ccc(OCCCCc2ccccc2)cc1" ; retrieve measured Ratio (fed/fasted) Sdissolv.
Data returned: 9.1

# credit: paper PMC12592319
